System: Escherichia coli
ASSAY_OVERVIEW: Antibacterial activity against Escherichia coli ATCC 25922 after 72 hrs by broth microdilution method
Format: functional
STATED_CONDITIONS: Escherichia coli, ATCC 25922, 72 h; read-out: MIC
Form field: MIC (one value per entry).
Answer in µM, number only, no unit symbol.

Exercise: Kindly indicate its recorded MIC. Item: CCCCCCCCCCCCCC[n+]1ccc(-c2cc[n+](CCCCCCCCCCCCCC)cc2)cc1.[Br-].[Br-]
Key: 250

---

Tested on: Escherichia coli
ASSAY_OVERVIEW: Antibacterial activity against Escherichia coli ATCC 25922 after 72 hrs by broth microdilution method
Assay type: functional
STATED_CONDITIONS: Escherichia coli, ATCC 25922, 72 h; read-out: MIC
Form field: MIC (one value per entry).
Answer in µM, number only, no unit symbol.

CCCCCCCCCCCC[n+]1ccc(-c2ccncc2)cc1    63

Exercise: Quote MIC with test system Escherichia coli for CCCCCCCCCCCCCC[n+]1ccc(-c2cc[n+](CC)cc2)cc1
Key: 63

Exercise: Quote MIC with test system Escherichia coli for CCCCCCCCCCCCCCCCCC[n+]1ccc(-c2cc[n+](CCCC)cc2)cc1
Key: 31

Exercise: Quote MIC with test system Escherichia coli for CCCCCCCCCCCCCCCC[n+]1ccc(-c2cc[n+](CC)cc2)cc1.[Br-].[Br-]
Key: 63

Exercise: Quote MIC with test system Escherichia coli for CCCCCCCCCCCCC[n+]1ccc(-c2cc[n+](CCCCCCCCCCCCC)cc2)cc1.[Br-].[Br-]
Key: 16

Exercise: Quote MIC with test system Escherichia coli for CCCCCCCCCC[n+]1ccc(-c2cc[n+](CCCCCCCCCC)cc2)cc1
Key: 8

---

System: Staphylococcus aureus
ASSAY_OVERVIEW: Antibacterial activity against Staphylococcus aureus subsp. aureus ATCC 29213 after 72 hrs by broth microdilution method
Format: functional
Form field: MIC (one value per entry).
Answer in µM, number only, no unit symbol.

Worked cases, answers included:
CCCCCCCCCCC[n+]1ccc(-c2cc[n+](CCCCCCCCCCC)cc2)cc1.[I-].[I-]    4
CCCCCCCCCCCC[n+]1ccc(-c2cc[n+](CCCCCCCCCCCC)cc2)cc1.[Cl-].[Cl-]    2
CCCCCCCCCC[n+]1ccc(-c2cc[n+](CCCCCCCCCC)cc2)cc1.[I-].[I-]    2

Exercise: Quote MIC with test system Staphylococcus aureus for CCCCCCCCCCCC[n+]1ccc(-c2cc[n+](CCCCCCCCCCCC)cc2)cc1.[I-].[I-]
Key: 8

Exercise: Quote MIC with test system Staphylococcus aureus for CCCCCCCCCCC[n+]1ccc(-c2cc[n+](CCCCCCCCCCC)cc2)cc1.[Cl-].[Cl-]
Key: 2

Exercise: Quote MIC with test system Staphylococcus aureus for CCCCCCCCCCCC[n+]1ccc(-c2cc[n+](CCCCCCCCCCCC)cc2)cc1.[Br-].[Br-]
Key: 2

Exercise: Quote MIC with test system Staphylococcus aureus for CCCCCCCCCC[n+]1ccc(-c2cc[n+](CCCCCCCCCC)cc2)cc1.[Cl-].[Cl-]
Key: 2

---

System: Pseudomonas aeruginosa
ASSAY_OVERVIEW: Antibacterial activity against Pseudomonas aeruginosa Boston 41501 ATCC 27853 after 72 hrs by broth microdilution method
Format: functional
STATED_CONDITIONS: Pseudomonas aeruginosa, Boston 41501 ATCC 27853, 72 h; read-out: MIC
Form field: MIC (one value per entry).
Answer in µM, number only, no unit symbol.

Worked cases, answers included:
CCCCCCCCCCCCCC[n+]1ccc(-c2cc[n+](CC)cc2)cc1    250
CCCCCCCCCCCCCC[n+]1ccc(-c2cc[n+](C)cc2)cc1.[Br-].[I-]    125
CCCCCCCCCCCCCCCCCC[n+]1ccc(-c2cc[n+](CCCC)cc2)cc1    125

Please examine the following record next.
Exercise: Quote MIC with test system Pseudomonas aeruginosa for CCCCCCCCCCCCCC[n+]1ccc(-c2ccncc2)cc1
Key: 125

---

System: Enterococcus faecalis
ASSAY_OVERVIEW: Antibacterial activity against Enterococcus faecalis ATCC 29212 after 72 hrs by broth microdilution method
Type: functional
Form field: MIC (one value per entry).
Answer in µM, number only, no unit symbol.

CCCCCCCCCCCC[n+]1ccc(-c2cc[n+](CCCCCCCCCCCC)cc2)cc1.[Br-].[Br-]    4
CCCCCCCCCCCC[n+]1ccc(-c2cc[n+](CCCCCCCCCCCC)cc2)cc1.[I-].[I-]    16
CCCCCCCCCCC[n+]1ccc(-c2cc[n+](CCCCCCCCCCC)cc2)cc1.[I-].[I-]    8
CCCCCCCCCCCC[n+]1ccc(-c2cc[n+](CCCCCCCCCCCC)cc2)cc1.[Cl-].[Cl-]    4
CCCCCCCCCC[n+]1ccc(-c2cc[n+](CCCCCCCCCC)cc2)cc1.[Cl-].[Cl-]    4
CCCCCCCCCCC[n+]1ccc(-c2cc[n+](CCCCCCCCCCC)cc2)cc1.[Cl-].[Cl-]    2
CCCCCCCCCC[n+]1ccc(-c2cc[n+](CCCCCCCCCC)cc2)cc1.[I-].[I-]    4

Exercise: Kindly indicate its recorded MIC. Item: CCCCCCCCCCC[n+]1ccc(-c2cc[n+](CCCCCCCCCCC)cc2)cc1.[Br-].[Br-]
Key: 2

---

ASSAY_OVERVIEW: Solubility of the compound in water
Format: physicochemical
STATED_CONDITIONS: buffer
ENDPOINT_NAME: solubility

Worked cases, answers included:
CCCCCCCCCCCC[n+]1ccc(-c2cc[n+](CCCCCCCCCCCC)cc2)cc1.[I-].[I-]    Insoluble
CCCCCCCCCCCC[n+]1ccc(-c2cc[n+](C)cc2)cc1.[Br-].[I-]    Insoluble
CCCCCCCCCCCCCCCC[n+]1ccc(-c2cc[n+](CC)cc2)cc1.[Br-].[Br-]    Insoluble
CCCCCCCCCCCCCC[n+]1ccc(-c2cc[n+](CCCCCCCCCCCCCC)cc2)cc1.[Br-].[Br-]    Insoluble
CCCCCCCCCCCCCCCCCCCC[n+]1ccc(-c2cc[n+](C)cc2)cc1.[Br-].[I-]    Insoluble

Exercise: Kindly indicate its recorded solubility. Item: CCCCCCCCCCC[n+]1ccc(-c2cc[n+](CCCCCCCCCCC)cc2)cc1.[I-].[I-]
Key: Insoluble

Exercise: Kindly indicate its recorded solubility. Item: CCCCCCCCCCCCCCCC[n+]1ccc(-c2cc[n+](C)cc2)cc1.[Br-].[I-]
Key: Insoluble

Exercise: Kindly indicate its recorded solubility. Item: CCCCCCCCCCCCCCCC[n+]1ccc(-c2cc[n+](CCCCCCCCCCCCCCCC)cc2)cc1.[Br-].[Br-]
Key: Insoluble

Exercise: Kindly indicate its recorded solubility. Item: CCCCCCCCCCCCCCCC[n+]1ccc(-c2cc[n+](CCCCCCCCCCCCCCCC)cc2)cc1.[I-].[I-]
Key: Insoluble

---

Test system: Escherichia coli
ASSAY_OVERVIEW: Antibacterial activity against Escherichia coli ATCC 25922 after 72 hrs by broth microdilution method
Format: functional
STATED_CONDITIONS: Escherichia coli, ATCC 25922, 72 h; read-out: MIC
Form field: log10 of MIC (one value per entry).
// do not treat as linear: log10 of MIC, unit µM

CCCCCCCCCCCCCCCCCC[n+]1ccc(-c2cc[n+](C)cc2)cc1.[Br-].[I-]    1.49
CCCCCCCCCCCC[n+]1ccc(-c2cc[n+](C)cc2)cc1.[Br-].[I-]    2.10
CCCCCCCCCCCC[n+]1ccc(-c2cc[n+](CC)cc2)cc1    2.40

Exercise: Kindly indicate its recorded log10 of MIC. Item: CCCCCCCCCCCCCC[n+]1ccc(-c2cc[n+](C)cc2)cc1.[Br-].[I-]
Key: 1.80

Exercise: Kindly indicate its recorded log10 of MIC. Item: CCCCCCCCCCCCCCCCCC[n+]1ccc(-c2cc[n+](CC)cc2)cc1
Key: 1.49

Exercise: Kindly indicate its recorded log10 of MIC. Item: CCCCCCCCCCCCCCCCCCCC[n+]1ccc(-c2cc[n+](CC)cc2)cc1
Key: 2.10

Exercise: Kindly indicate its recorded log10 of MIC. Item: CCCCCCCCCCCCCCCC[n+]1ccc(-c2cc[n+](CCCCCC)cc2)cc1
Key: 0.90

# credit: ChEMBL document CHEMBL2029312
